READOUT_KIND: logP
Simply state the number, no unit and no words.

IN: Name the recorded logP for O=[N+]([O-])c1cc(F)cc(F)c1 .
OUT: 2.03

IN: Next: O=[N+]([O-])c1cccc(F)c1
OUT: 2.02

IN: Next: CCCc1ccccc1O
OUT: 2.93

IN: Next: O=[N+]([O-])c1ccc(F)cc1
OUT: 1.89

IN: Next: Cc1cc2ccccc2o1
OUT: 3.22

IN: Next: O=[N+]([O-])c1ccccc1F
OUT: 1.84

IN: Next: Oc1cccc2c(O)cccc12
OUT: 2.19

IN: Next: OCC1c2ccccc2-c2ccccc21
OUT: 2.89

IN: Next: Oc1ccc2c(c1)CCCC2
OUT: 2.9

IN: Next: O=[N+]([O-])c1cc(F)ccc1F
OUT: 1.86

IN: Next: OC1CCCc2ccccc21 (configuration not stated)
OUT: 1.98

IN: Next: CC(=O)c1cccc(Br)c1
OUT: 2.58
